Origin of the recorded values: ChEMBL document CHEMBL3991601

- test.target: Serine/threonine-protein kinase STK11 (Homo sapiens, UniProt Q15831); further: in the data inactive means no Kd found up to 30 µM
- Sequence (Q15831 whole entry): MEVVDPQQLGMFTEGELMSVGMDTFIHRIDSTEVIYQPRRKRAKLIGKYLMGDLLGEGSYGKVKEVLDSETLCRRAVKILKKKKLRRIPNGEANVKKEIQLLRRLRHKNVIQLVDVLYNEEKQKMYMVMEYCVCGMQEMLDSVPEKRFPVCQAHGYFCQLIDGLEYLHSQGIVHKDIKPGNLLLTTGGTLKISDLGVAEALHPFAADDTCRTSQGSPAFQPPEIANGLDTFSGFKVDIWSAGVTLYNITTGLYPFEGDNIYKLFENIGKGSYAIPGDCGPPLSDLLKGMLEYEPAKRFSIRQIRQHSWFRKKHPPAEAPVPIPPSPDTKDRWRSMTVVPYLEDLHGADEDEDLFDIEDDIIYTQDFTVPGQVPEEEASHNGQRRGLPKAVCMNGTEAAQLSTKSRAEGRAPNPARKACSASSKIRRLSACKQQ
Calls of active or inactive are those of the source.
Output constraint: value belongs to True for active, False for inactive

Here's what some known entries look like.
{"compound": "CN(C)C(=O)c1cc2cnc(Nc3ccc(N4CCNCC4)cn3)nc2n1C1CCCC1 [RIBOCICLIB]", "test.target": "Serine/threonine-protein kinase STK11 (Homo sapiens, UniProt Q15831)", "category.label": "False"}
{"compound": "CCc1cnn2c(NCc3ccc[n+]([O-])c3)cc(N3CCCC[C@H]3CCO)nc12 [DINACICLIB]", "test.target": "Serine/threonine-protein kinase STK11 (Homo sapiens, UniProt Q15831)", "category.label": "True"}
{"compound": "N[C@@H]1CCCN(c2c(/C=C3\\SC(=O)NC3=O)cccc2-c2ccccc2)C1", "test.target": "Serine/threonine-protein kinase STK11 (Homo sapiens, UniProt Q15831)", "category.label": "False"}
{"compound": "COc1cc2nccc(Oc3ccc(NC(=O)Nc4cc(C)on4)c(Cl)c3)c2cc1OC [TIVOZANIB]", "test.target": "Serine/threonine-protein kinase STK11 (Homo sapiens, UniProt Q15831)", "category.label": "False"}
{"compound": "C[C@@H]1CN(Cc2ccc(F)cc2)[C@@H](C)CN1C(=O)c1cc2c(C(=O)C(=O)N(C)C)cn(C)c2cc1Cl [TALMAPIMOD]", "test.target": "Serine/threonine-protein kinase STK11 (Homo sapiens, UniProt Q15831)", "category.label": "False"}

# ---- query compound ----
Challenge: In this assay, the call recorded for Cc1cc(-c2cc(O)ccc2Cl)cc2nnc(Nc3ccc(OCCN4CCCC4)cc3)nc12 was what?
Response given: False

###

- test.target: Mitogen-activated protein kinase kinase kinase kinase 2 (Homo sapiens, UniProt Q12851); further: in the data inactive means no Kd found up to 30 µM
- Sequence (Q12851 whole entry): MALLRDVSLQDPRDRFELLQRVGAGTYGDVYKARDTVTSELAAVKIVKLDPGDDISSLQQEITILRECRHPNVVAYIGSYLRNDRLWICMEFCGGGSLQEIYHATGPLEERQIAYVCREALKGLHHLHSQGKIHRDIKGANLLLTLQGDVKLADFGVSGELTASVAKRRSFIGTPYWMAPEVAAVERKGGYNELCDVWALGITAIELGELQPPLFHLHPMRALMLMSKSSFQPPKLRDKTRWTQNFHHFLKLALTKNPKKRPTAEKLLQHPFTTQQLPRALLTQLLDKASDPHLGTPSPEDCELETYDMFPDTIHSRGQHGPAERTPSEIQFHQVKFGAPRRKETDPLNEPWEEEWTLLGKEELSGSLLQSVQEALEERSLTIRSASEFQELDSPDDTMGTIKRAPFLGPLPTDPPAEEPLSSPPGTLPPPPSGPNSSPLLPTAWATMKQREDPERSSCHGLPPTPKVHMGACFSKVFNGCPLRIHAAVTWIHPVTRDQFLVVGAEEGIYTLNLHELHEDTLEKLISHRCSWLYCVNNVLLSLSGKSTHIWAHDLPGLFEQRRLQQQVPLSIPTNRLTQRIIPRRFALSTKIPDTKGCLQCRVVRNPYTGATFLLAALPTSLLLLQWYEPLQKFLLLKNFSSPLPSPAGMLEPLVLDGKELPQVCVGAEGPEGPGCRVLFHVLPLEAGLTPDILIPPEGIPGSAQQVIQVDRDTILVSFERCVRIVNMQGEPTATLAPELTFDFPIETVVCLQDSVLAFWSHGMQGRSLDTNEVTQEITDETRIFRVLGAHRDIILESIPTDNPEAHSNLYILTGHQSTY
Activity calls are given as the source filed them.
Give your call using only these classes: active, inactive

{"molecule": "CO[C@H]1C[C@@H]2CC[C@@H](C)[C@@](O)(O2)C(=O)C(=O)N2CCCC[C@H]2C(=O)O[C@H]([C@H](C)C[C@@H]2CC[C@@H](OCCO)[C@H](OC)C2)CC(=O)[C@H](C)/C=C(\\C)[C@@H](O)[C@@H](OC)C(=O)[C@H](C)C[C@H](C)/C=C/C=C/C=C/1C [EVEROLIMUS]", "category.label": "inactive"}
{"molecule": "COc1cc2nccc(Oc3ccc(NC(=O)NC4CC4)c(Cl)c3)c2cc1C(N)=O [LENVATINIB]", "category.label": "active"}
{"molecule": "COc1cc(OC)c(/C=C/S(=O)(=O)Cc2ccc(OC)c(NCC(=O)O)c2)c(OC)c1 [RIGOSERTIB]", "category.label": "inactive"}
{"molecule": "CNC(=O)c1cc(Oc2ccc(NC(=O)Nc3ccc(Cl)c(C(F)(F)F)c3)c(F)c2)ccn1 [REGORAFENIB]", "category.label": "inactive"}
{"molecule": "Cc1ccc(S(=O)(=O)Nc2nc3ccccc3nc2Nc2ccc3nsnc3c2)cc1", "category.label": "inactive"}
{"molecule": "Cc1cc2c(F)c(Oc3ncnn4cc(OC[C@@H](C)OC(=O)[C@H](C)N)c(C)c34)ccc2[nH]1 [BRIVANIB ALANINATE]", "category.label": "inactive"}

Challenge: // param item: Cc1ccc(-n2nc(C(C)(C)C)cc2NC(=O)NCc2cc(F)ccc2Oc2ccc3c(cnn3CCO)c2)cc1 [PEXMETINIB] ; yields the recorded call
Response given: inactive
